pIC50 by entry:
target_under_test: Human Cav3.1 calcium channel (Homo sapiens, UniProt O43497)
Construct: expressed in transfected cells; host or cells: HEK-293 natClytin/TASK1+Cav3.1 cell line
Sequence (O43497 whole entry): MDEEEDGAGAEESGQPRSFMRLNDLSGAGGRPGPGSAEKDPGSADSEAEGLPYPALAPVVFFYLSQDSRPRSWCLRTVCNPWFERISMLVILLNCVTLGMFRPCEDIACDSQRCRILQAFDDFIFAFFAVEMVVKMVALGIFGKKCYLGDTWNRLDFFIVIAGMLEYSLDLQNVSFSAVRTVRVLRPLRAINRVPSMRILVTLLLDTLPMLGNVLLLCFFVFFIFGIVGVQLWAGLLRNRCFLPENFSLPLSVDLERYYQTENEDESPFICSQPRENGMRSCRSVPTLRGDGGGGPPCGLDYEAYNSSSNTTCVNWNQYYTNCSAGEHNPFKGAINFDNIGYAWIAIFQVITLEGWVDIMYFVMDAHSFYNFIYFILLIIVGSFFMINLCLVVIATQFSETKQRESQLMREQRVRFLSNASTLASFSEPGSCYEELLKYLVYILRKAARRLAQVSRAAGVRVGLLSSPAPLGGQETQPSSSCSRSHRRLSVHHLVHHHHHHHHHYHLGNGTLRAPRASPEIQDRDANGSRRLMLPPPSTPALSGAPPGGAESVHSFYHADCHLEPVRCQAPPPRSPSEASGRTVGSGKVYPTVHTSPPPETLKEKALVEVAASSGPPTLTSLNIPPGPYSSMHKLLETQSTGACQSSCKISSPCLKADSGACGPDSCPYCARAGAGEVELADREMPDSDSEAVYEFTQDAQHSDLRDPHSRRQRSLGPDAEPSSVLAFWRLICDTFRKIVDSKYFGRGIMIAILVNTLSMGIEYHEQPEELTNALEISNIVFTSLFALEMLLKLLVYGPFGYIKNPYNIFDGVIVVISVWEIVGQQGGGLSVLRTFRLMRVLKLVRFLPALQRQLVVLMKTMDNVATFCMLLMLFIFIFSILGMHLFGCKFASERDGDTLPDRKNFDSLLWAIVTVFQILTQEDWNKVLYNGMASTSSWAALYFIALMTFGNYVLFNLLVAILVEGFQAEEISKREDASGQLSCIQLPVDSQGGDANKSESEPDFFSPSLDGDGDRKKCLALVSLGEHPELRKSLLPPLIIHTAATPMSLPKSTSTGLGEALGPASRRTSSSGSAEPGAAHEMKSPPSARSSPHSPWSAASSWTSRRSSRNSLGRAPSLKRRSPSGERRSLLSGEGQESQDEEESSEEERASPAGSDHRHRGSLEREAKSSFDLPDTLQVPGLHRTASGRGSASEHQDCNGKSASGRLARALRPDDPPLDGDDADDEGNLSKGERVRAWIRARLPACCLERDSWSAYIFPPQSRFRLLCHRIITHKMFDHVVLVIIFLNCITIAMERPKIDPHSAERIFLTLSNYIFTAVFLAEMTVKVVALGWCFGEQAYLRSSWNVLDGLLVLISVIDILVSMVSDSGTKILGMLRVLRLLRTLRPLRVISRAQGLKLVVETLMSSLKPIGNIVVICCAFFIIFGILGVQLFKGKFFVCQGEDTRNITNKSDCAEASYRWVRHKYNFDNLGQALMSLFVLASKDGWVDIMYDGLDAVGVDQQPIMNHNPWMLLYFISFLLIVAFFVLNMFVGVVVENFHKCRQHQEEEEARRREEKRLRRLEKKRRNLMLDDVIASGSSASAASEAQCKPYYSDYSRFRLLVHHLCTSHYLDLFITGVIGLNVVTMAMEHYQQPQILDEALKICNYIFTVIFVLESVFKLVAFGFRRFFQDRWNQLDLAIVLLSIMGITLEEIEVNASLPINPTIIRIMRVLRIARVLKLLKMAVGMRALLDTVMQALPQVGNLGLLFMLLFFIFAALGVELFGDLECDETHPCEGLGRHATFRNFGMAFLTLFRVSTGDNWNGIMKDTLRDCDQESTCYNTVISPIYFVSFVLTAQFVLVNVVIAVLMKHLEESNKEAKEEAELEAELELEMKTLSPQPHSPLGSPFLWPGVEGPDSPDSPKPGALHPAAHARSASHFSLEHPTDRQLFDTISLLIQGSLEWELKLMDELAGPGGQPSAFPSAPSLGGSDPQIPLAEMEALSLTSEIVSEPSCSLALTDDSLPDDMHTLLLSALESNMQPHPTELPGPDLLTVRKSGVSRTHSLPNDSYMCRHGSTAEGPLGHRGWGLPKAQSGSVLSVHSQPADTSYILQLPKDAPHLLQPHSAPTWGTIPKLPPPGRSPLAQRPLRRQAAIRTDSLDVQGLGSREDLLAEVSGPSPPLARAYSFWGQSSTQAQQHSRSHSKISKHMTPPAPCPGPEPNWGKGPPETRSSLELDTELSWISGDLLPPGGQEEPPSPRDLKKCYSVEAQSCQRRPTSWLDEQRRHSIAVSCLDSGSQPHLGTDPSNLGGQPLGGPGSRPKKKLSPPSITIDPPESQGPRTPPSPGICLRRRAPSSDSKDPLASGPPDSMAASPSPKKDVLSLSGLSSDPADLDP
assay_name: Human Cav3.1 calcium channel patch clamp assay (SyncroPatch 384PE; single point and IC50, voltage dependent block)
Type: cell-based
condition_description: voltage dependent block (VDB); HEK-293 natClytin/TASK1+Cav3.1 cell line; read-out: Cav3.1 IC50
Just so you know, pIC50 here is -log10 of the concentration in molar units; reply with that number alone.

Here are 4 compounds together with their reported answers.
[
  {
    "compound": "CC(C)(C)NC(=O)CN1C[C@@H]2C[C@H]1CN2CC(=O)NC12CCC(CC1)CC2",
    "readout_name": "pIC50",
    "value_observed": 6.17
  },
  {
    "compound": "CC(C(=O)Nc1ccc(F)c(Cl)c1)N1CC2CC(C1)N2CC(=O)NC1(C(F)(F)F)CC1 (centres unmarked)",
    "readout_name": "pIC50",
    "value_observed": 6.15
  },
  {
    "compound": "Fc1cc(Cl)c2nc(CN3CC4CC(C3)N4CC3CCOCC3)[nH]c2c1",
    "readout_name": "pIC50",
    "value_observed": 5.87
  },
  {
    "compound": "CC1(CN2C3CC2CN(Cc2nc4c(Cl)cc(F)cc4[nH]2)C3)CCOCC1",
    "readout_name": "pIC50",
    "value_observed": 5.95
  }
]

Read the next record carefully.
State the recorded pIC50 for this entry: N#CC1(CN2C3CC2CN(Cc2nc4c(Cl)ccc(F)c4[nH]2)C3)CCCCC1 5.86
